target: T1, recombinant LILRB1 (human, UniProt Q8NHL6 24-461); assay: ELISA, coated recombinant LILRB1, antibody titration;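 also: serially diluted anti-LILRB1 antibodies incubated 60 min at 37 °C on plates coated with 50 ng/well recombinant protein, TMB colorimetric development read as absorbance at 450 nm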
T1 construct: LILRB1-Fc proteins were also made; also called LILRB1 recombinant proteins
T1 sequence (Q8NHL6 24-461 limits assumed): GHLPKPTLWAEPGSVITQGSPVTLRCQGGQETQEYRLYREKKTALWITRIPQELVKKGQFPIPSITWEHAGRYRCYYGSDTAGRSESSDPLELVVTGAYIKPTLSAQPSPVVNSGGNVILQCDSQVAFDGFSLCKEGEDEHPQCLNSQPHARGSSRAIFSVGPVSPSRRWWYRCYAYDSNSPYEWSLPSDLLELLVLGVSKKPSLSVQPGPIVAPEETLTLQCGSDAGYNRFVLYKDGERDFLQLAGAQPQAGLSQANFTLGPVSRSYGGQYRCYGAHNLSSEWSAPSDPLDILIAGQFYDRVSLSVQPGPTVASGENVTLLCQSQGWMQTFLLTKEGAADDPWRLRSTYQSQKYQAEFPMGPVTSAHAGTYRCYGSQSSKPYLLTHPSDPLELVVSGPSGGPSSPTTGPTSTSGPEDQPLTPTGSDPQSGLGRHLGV
reported metric: EC50 (µg/mL)
Write it as a number; the unit µg/mL goes unstated.

Here is how some binders turned out for EC50.
binder	units text	EC50
B1-#176 (antibody, V domains shown, recombinant rabbit IgG) VH: QSLEESEGGLVKPGGTLTLTCTASGFSFSSSYCMCWVRQAPGKGLELIACIYTDSSGATYYASWAKGRFTISKSSSTTITLQMTSLTAADTATYFCARGWDYEDPGYTDTTYFSLWGPGTLVTVSS VL: ELDLTQTPSSVEAAVGGTVTIKCQASQTIYTNLAWYQQKPGQPPNLLIYAASTLASGVSSRFKGSGSGTEFTLTISDLECADAATYYCQSYYGSSTTGNGFGGGTEVEIK	µg/mL	0.00224
B1-#25 (antibody, V domains shown, recombinant rabbit IgG) VH: EQSVKESGGGLVQPEGSLTLTCKVSGIDFNYYNYYYMCWVRQAPGKGLEWIGCMSTASANIYLASWAKGRFTISEASSTTVTLQMTSLTAADTATYFCAKSHGGDGGYGVVLWGPGTLVTISS VL: ELDLTQTPFSVSAAVGGTVTIKCQASETISNRLAWYQQKPGQPPKLLIYSASTLESGVPSRFKGSGSGTEFTLTISDLECADAATYYCQSIRSSSGIVHPNTFGGGTEVEIK	µg/mL	0.0132

Lab note: next binder to report on.
Enquiry: Supply reported EC50 belonging to this binder: B1-#128 (antibody, V domains shown, recombinant rabbit IgG) VH: RAVGKESGGDLVTLGGSLKLSCKASGIDLSNFYYMCWVRQAPGKGLEWIGCVASDSSRTHYATWPKGRFTISKTSSTTVTLQMTSLTAADTATYFCARGSGASTNGVWWVMGDGMDLWGPGTLVTVSS VL: ELDMTQTPSSVSAAVGGTVTIKCQASQSISSYLSWYQQKPGQPPKRLIYKASTLPSGVPPRFKGSGSGTEFTLTISDLECADAATYYCQNNYHSGSSNGGGFAFGGGTQVEIK
Return: 0.04
